Where do the numbers come from? From ChEMBL document CHEMBL3120084.

- Test system: Enterococcus faecalis
- procedure-summary: Dark toxicity against Enterococcus faecalis ATCC 29212 at 0.1 to 100 uM after 10 mins
- Format: organism-based
- condition-label: in vivo

smiles-structure: CCCS(=O)(=O)N(CC)c1cccc2/c(=N\CC)cc3sc4cc(N(CC)CC)ccc4nc-3c12.Cl
Activity: Toxic

smiles-structure: CC/N=c1/cc2sc3cc(N(CC)CC)ccc3nc-2c2c([N+](=O)[O-])cccc12.Cl
Activity: Toxic

smiles-structure: CCN(CC)c1ccc2nc3c4ccccc4/c(=N\CCNC(=N)N)cc-3sc2c1.Cl.Cl
Activity: Toxic

---

- procedure-summary: Induction of reactive oxygen species generation at 5 uM using singlet oxygen sensor green probe by microplate spectrophotometer analysis in presence of 1 J/cm'2 to 15 J/cm'2 of light
- Type: physicochemical
assay-metric: Activity

Examples with their reported Activity follow.
smiles-structure: CC/N=c1/cc2sc3cc(N(CC)CC)ccc3nc-2c2c([N+](=O)[O-])cccc12.Cl
Activity: Active

smiles-structure: CCCS(=O)(=O)N(CC)c1cccc2c3nc4ccc(N(CC)CC)cc4sc-3c/c(=N\CC)c12.Cl
Activity: Active

smiles-structure: CC/N=c1/cc2sc3cc(N(CC)CC)ccc3nc-2c2c(N)cccc12.Cl
Activity: Active

smiles-structure: CCN(CC)c1ccc2nc3c4ccccc4/c(=N\CCNC(=N)N)cc-3sc2c1.Cl.Cl
Activity: Active

stdin: Fill in reported Activity for this entry: CC/N=c1/cc2sc3cc(N(CC)CC)ccc3nc-2c2ccccc12.Cl
stdout: Active

stdin: Fill in reported Activity for this entry: CC/N=c1/cc2sc3cc(N(CC)CC)ccc3nc-2c2c(NC(C)=O)cccc12.Cl
stdout: Active

stdin: Fill in reported Activity for this entry: CCCS(=O)(=O)N(CC)c1cccc2/c(=N\CC)cc3sc4cc(N(CC)CC)ccc4nc-3c12.Cl
stdout: Active

---

- System: Staphylococcus aureus
- procedure-summary: Dark toxicity against Staphylococcus aureus 8325-4 at 0.1 to 100 uM after 10 mins
- Assay type: organism-based
- condition-label: in vivo
assay-metric: Activity

smiles-structure: CCCS(=O)(=O)N(CC)c1cccc2/c(=N\CC)cc3sc4cc(N(CC)CC)ccc4nc-3c12.Cl
endpoint-value: Toxic
--
smiles-structure: CCN(CC)c1ccc2nc3c4ccccc4/c(=N\CCNC(=N)N)cc-3sc2c1.Cl.Cl
endpoint-value: Toxic
--
smiles-structure: CC/N=c1/cc2sc3cc(N(CC)CC)ccc3nc-2c2c([N+](=O)[O-])cccc12.Cl
endpoint-value: Toxic

---

- Test system: Escherichia coli
- procedure-summary: Drug uptake in Escherichia coli ATCC 53868 incubated for 10 mins in dark by fluorescence analysis
- Type: ADME, organism-based
- condition-label: in vivo
assay-metric: Drug uptake

Examples with their reported Drug uptake follow.
smiles-structure: CC/N=c1/cc2sc3cc(N(CC)CC)ccc3nc-2c2ccccc12.Cl
Drug uptake: Active

smiles-structure: CCCS(=O)(=O)N(CC)c1cccc2c3nc4ccc(N(CC)CC)cc4sc-3c/c(=N\CC)c12.Cl
Drug uptake: Active

smiles-structure: CCCS(=O)(=O)N(CC)c1cccc2/c(=N\CC)cc3sc4cc(N(CC)CC)ccc4nc-3c12.Cl
Drug uptake: Active

smiles-structure: CCN(CC)c1ccc2nc3c4ccccc4/c(=N\CCNC(=N)N)cc-3sc2c1.Cl.Cl
Drug uptake: Active

smiles-structure: CC/N=c1/cc2sc3cc(N(CC)CC)ccc3nc-2c2c(N)cccc12.Cl
Drug uptake: Active

As a next step, examine the compound that follows.
stdin: Fill in reported Drug uptake for this entry: CC/N=c1/cc2sc3cc(N(CC)CC)ccc3nc-2c2c([N+](=O)[O-])cccc12.Cl
stdout: Active
